biological target: medaka FXRα2 (Oryzias latipes, UniProt H2M6M7); test: Transient transactivation luciferase assay in HEK293T cells, agonist mode
Sequence (H2M6M7 1-485): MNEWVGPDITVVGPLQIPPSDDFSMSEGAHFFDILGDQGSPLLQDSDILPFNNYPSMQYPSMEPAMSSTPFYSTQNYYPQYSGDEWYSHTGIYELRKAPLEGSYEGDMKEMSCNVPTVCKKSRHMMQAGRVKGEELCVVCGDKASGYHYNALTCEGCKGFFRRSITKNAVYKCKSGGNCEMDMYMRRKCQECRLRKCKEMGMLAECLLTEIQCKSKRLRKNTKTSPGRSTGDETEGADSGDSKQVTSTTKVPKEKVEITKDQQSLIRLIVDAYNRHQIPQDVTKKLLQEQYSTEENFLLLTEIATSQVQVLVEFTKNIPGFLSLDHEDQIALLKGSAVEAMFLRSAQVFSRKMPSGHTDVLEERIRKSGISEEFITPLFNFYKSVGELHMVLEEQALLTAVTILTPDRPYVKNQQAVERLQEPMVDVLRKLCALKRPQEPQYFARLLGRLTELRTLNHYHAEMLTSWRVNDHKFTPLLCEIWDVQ

# compound, EC50 (nM)
data = [
    ("CC(C)c1onc(-c2c(Cl)cccc2Cl)c1COc1ccc(C=Cc2cccc(C(=O)O)c2)c(Cl)c1 [GW4064, reference compound]", 269),
]

###

target: human FXRα (Homo sapiens, UniProt Q96RI1); assay: cell-based
Sequence (Q96RI1 whole entry): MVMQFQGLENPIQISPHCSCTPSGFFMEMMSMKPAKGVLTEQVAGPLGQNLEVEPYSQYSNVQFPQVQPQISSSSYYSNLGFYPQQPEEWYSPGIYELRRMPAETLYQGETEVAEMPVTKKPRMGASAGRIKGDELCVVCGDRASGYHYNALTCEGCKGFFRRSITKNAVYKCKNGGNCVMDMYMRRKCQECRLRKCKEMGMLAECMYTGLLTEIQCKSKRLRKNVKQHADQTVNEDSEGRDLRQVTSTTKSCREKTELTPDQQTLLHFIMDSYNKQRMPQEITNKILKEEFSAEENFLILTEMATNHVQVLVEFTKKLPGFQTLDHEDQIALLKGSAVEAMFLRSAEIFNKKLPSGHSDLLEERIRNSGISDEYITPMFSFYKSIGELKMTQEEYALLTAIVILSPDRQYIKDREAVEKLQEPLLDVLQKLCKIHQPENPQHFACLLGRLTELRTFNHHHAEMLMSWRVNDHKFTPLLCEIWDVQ
Sequence (P19793 whole entry partner): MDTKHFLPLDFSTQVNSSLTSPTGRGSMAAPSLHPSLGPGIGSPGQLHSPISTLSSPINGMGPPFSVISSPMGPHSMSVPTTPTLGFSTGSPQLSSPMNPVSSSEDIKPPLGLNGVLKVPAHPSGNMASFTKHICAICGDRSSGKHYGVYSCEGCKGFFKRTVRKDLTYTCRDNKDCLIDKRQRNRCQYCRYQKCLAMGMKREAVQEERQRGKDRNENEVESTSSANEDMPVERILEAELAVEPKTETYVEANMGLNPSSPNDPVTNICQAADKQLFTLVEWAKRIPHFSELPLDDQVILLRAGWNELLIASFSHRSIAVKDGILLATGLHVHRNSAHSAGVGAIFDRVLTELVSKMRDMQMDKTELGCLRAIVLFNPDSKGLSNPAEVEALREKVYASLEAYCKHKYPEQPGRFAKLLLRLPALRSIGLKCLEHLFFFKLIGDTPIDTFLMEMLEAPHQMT
parameter_measured: Current Study Human FXRa Activity Human FXRa

# molecule, val
records = [
    ("CCCCCCCC(=O)OCC(COC(=O)CCCCCCC)OC(=O)CCCCCCC [Tricaprylin]", "Inactive"),
    ("CCC(C)(c1ccc(O)cc1)c1ccc(O)cc1 [Bisphenol B]", "Active"),
    ("CO/N=C1\\C[C@]2(C[C@@H]3C[C@@H](C/C=C(\\C)C[C@@H](C)/C=C/C=C4\\CO[C@@H]5[C@H](O)C(C)=C[C@@H](C(=O)O3)[C@]45O)O2)O[C@H](/C(C)=C/C(C)C)[C@H]1C [Moxidectin, reference compound]", "Active"),
    ("COc1cc2c(c(OC)c1OC)-c1ccc(OC)c(=O)cc1[C@@H](NC(C)=O)CC2 [Colchicine, reference compound]", "Inactive"),
    ("Cc1c(COC(=O)[C@@H]2[C@H](/C=C(\\Cl)C(F)(F)F)C2(C)C)cccc1-c1ccccc1 (racemic) [Bifenthrin]", "Active"),
]
